Give measured inhibition of hemolysis IC50 for each item. Keep answers brief.
- target.desc: Human C3 (Complement tech cat #A113c) (human, UniProt P01024 23-1663)
- Sequence (P01024 23-1663 limits assumed): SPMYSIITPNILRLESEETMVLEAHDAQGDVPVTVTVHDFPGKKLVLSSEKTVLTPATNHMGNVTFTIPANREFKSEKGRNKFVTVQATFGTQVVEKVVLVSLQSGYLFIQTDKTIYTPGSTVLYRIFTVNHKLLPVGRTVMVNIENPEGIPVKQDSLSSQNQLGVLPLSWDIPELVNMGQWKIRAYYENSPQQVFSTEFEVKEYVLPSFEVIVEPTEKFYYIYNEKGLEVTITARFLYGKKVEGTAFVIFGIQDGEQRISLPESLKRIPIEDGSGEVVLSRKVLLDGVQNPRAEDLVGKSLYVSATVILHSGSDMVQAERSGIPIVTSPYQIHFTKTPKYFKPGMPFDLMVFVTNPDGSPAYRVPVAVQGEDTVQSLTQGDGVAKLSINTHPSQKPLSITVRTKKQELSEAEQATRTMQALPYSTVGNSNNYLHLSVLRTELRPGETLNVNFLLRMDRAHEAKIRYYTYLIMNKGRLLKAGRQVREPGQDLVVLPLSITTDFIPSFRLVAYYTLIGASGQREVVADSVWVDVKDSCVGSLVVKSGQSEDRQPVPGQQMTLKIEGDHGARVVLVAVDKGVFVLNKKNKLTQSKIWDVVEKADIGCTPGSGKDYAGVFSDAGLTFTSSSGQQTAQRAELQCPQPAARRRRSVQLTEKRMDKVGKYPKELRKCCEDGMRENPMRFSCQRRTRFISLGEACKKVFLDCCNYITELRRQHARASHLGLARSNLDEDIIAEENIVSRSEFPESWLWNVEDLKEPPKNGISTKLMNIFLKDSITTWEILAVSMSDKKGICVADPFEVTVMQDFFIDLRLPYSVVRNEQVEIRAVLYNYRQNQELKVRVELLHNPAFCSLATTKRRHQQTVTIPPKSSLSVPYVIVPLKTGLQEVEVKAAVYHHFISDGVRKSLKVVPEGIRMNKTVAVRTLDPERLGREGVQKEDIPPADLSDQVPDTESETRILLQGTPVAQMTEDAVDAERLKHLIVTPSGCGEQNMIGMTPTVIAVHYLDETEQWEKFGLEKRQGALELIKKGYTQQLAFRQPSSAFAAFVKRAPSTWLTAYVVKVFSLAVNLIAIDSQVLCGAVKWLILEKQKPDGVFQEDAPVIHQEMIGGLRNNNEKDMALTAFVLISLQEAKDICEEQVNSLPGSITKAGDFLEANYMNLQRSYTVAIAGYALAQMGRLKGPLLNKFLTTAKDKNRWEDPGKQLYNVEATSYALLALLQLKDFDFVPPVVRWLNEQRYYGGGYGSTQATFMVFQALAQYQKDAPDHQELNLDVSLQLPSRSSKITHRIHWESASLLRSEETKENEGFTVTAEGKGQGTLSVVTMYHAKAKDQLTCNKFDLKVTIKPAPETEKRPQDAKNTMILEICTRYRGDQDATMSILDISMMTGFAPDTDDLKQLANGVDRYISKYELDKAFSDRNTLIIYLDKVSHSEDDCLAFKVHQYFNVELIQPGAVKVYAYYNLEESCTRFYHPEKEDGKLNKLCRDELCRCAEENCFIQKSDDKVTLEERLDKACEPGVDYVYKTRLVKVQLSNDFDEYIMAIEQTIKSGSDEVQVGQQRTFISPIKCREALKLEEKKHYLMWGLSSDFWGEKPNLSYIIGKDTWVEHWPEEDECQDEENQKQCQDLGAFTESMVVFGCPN
- assay.explanation: cell-based or functional assay
Positions of bridges follow the written chain, without caps; N, C: chain ends. Non-standard residues stand in square brackets, D forms with d. No end group written: not given here. Trp(1-Me) = Cn1cc(C[C@H](N)C(=O)O)c2ccccc21; Sar = CNCC(=O)O

stdin: Return inhibition of hemolysis IC50 for the following binder: Ac-ICIWQDWGRHRCT-NH2 (disulfide 2-12; SMILES CC[C@H](C)[C@H](NC(C)=O)C(=O)N[C@H]1CSSC[C@@H](C(=O)N[C@H](C(N)=O)[C@@H](C)O)NC(=O)[C@H](CCCNC(=N)N)NC(=O)[C@H](Cc2c[nH]cn2)NC(=O)[C@H](CCCNC(=N)N)NC(=O)CNC(=O)[C@H](Cc2c[nH]c3ccccc23)NC(=O)[C@H](CC(=O)O)NC(=O)[C@H](CCC(N)=O)NC(=O)[C@H](Cc2c[nH]c3ccccc23)NC(=O)[C@H]([C@@H](C)CC)NC1=O) [Compound 18]
stdout: < 100 nM

stdin: Return reported inhibition of hemolysis IC50. Input binder: Ac-SE[Sar]CI[Trp(1-Me)]QEWGEHRC[Sar]EA-NH2 (disulfide 4-14; SMILES CC[C@H](C)[C@@H]1NC(=O)[C@@H](NC(=O)CN(C)C(=O)[C@H](CCC(=O)O)NC(=O)[C@H](CO)NC(C)=O)CSSC[C@@H](C(=O)N(C)CC(=O)N[C@@H](CCC(=O)O)C(=O)N[C@@H](C)C(N)=O)NC(=O)[C@H](CCCNC(=N)N)NC(=O)[C@H](Cc2c[nH]cn2)NC(=O)[C@H](CCC(=O)O)NC(=O)CNC(=O)[C@H](Cc2c[nH]c3ccccc23)NC(=O)[C@H](CCC(=O)O)NC(=O)[C@H](CCC(N)=O)NC(=O)[C@H](Cc2cn(C)c3ccccc23)NC1=O) [Compound 90]
stdout: < 250 nM

stdin: Look up and report measured inhibition of hemolysis IC50 for this entry: Ac-ESEICIWQDWGEHRCT-NH2 (disulfide 5-15; SMILES CC[C@H](C)[C@@H]1NC(=O)[C@@H](NC(=O)[C@@H](NC(=O)[C@H](CCC(=O)O)NC(=O)[C@H](CO)NC(=O)[C@H](CCC(=O)O)NC(C)=O)[C@@H](C)CC)CSSC[C@@H](C(=O)N[C@H](C(N)=O)[C@@H](C)O)NC(=O)[C@H](CCCNC(=N)N)NC(=O)[C@H](Cc2c[nH]cn2)NC(=O)[C@H](CCC(=O)O)NC(=O)CNC(=O)[C@H](Cc2c[nH]c3ccccc23)NC(=O)[C@H](CC(=O)O)NC(=O)[C@H](CCC(N)=O)NC(=O)[C@H](Cc2c[nH]c3ccccc23)NC1=O) [Compound 31]
stdout: < 100 nM

stdin: Fill in inhibition of hemolysis IC50 for record Ac-SEFCI[Trp(1-Me)]QDWGEHRCTEGE (disulfide 4-14; not fully specified (C-terminus); printed as Ac-SEFC(1)I[1-Me-Trp]QDWGEHRC(1)TEGE[Peg3]ES-K([17-carboxy-heptadecanoyl][γGlu])-NH2) [Compound 142]
stdout: < 100 nM

The values you see were collected from patent US11965039B2.
